Numbers sourced from ChEMBL document CHEMBL4673281.

Test system: Influenza A virus
test_name: Antiviral activity against Influenza A virus (A/Puerto Rico/8/34 (H1N1) infected in MDCK cells assessed as decrease in viral titer preincubated for 1 hr followed by viral infection and cultivated for 48 hrs followed by supernatant transferred to chicken erythrocyte for 1 hr followed by measuring ability to cause positive hemagglutination
Format: functional, organism-based
condition_info: A/Puerto Rico/8/1934(H1N1)
Listing of entries alongside the reported IC50.
Numbers only here, please. The scale is µM.

Find the measured IC50 of COc1ccc([C@H]2CC(C)(O)[C@@H]3CC[C@@H](C)C[C@H]3O2)c(OC)c1OC (stereo partly specified) with Influenza A virus as test system.
717

Provide IC50, recorded with Influenza A virus, of COc1cccc([C@H]2CC(C)(F)[C@@H]3CC[C@@H](C)C[C@H]3O2)c1OC (stereo partly specified)
43

# return IC50 of CC(N)C12CC3CC(CC(C3)C1)C2 (stereo unspecified) (system: Influenza A virus)
69

Report value: IC50, system: Influenza A virus, compound: C[C@@H]1CC[C@@H]2[C@@H](C1)O[C@@H](c1ccc(O)cc1)CC2(C)O (stereo partly specified)
87

System Influenza A virus. Read-out IC50. Item COc1ccc([C@H]2CC(C)(F)[C@@H]3CC[C@@H](C)C[C@H]3O2)c(OC)c1 (stereo partly specified) . Report value.
155

State, for Influenza A virus, measured IC50 of the compound listed here: C[C@@H]1CC[C@@H]2[C@@H](C1)O[C@@H](c1ccc(Cl)cc1)CC2(C)F (stereo partly specified)
29

Fetch value of IC50 on Influenza A virus for C[C@@H]1CC[C@@H]2[C@@H](C1)O[C@@H](c1ccccc1)CC2(C)O (stereo partly specified) .
100

State the measured IC50 (Influenza A virus) of C[C@@H]1CC[C@@H]2[C@@H](C1)O[C@@H](c1ccc(Br)cc1)CC2(C)F (stereo partly specified)
391

# assay system Influenza A virus: give IC50 of COc1cc(OC)c([C@H]2CC(C)(F)[C@@H]3CC[C@@H](C)C[C@H]3O2)cc1OC (stereo partly specified)
6

Give IC50 for this entry on Influenza A virus: COc1ccc([C@H]2CC(C)(F)[C@@H]3CC[C@@H](C)C[C@H]3O2)c(OC)c1OC (stereo partly specified)
6

Report value only: IC50, Influenza A virus, COc1cc([C@H]2CC(C)(F)[C@@H]3CC[C@@H](C)C[C@H]3O2)cc(OC)c1OC (stereo partly specified)
199
